Some compounds, each annotated with its measured pIC50.
System: A2780
Experiment: Cytotoxicity against human A2780 cells by MTT assay
Assay type: functional, cell-based
Units for pIC50: none; it is -log10 of a concentration expressed in mol/L.

compound="CCC(C)C(=O)O[C@H]1[C@H](OC(=O)/C=C(/C)CCC=C(C)C)C(C)(C)C[C@H]2C3=CC[C@@H]4[C@@]5(C)CC[C@H](O[C@@H]6O[C@H](C(=O)O)[C@@H](O)[C@H](O)[C@H]6O[C@@H]6O[C@H](CO)[C@@H](O)[C@H](O)[C@H]6O)C(C)(C)[C@@H]5CC[C@@]4(C)[C@]3(C)[C@@H](O)[C@@H](O)[C@]21CO (stereo partly drawn) [SYMPLOCOSOSIDE R]" observed=5.72

QUERY: Hello, please tell me recorded pIC50 for this one: CC(=O)O[C@@H]1[C@@H](O[C@@H]2O[C@H](CO)[C@@H](O)[C@H](O)[C@H]2O)[C@H](O[C@H]2CC[C@]3(C)[C@H]4CC=C5[C@@H]6CC(C)(C)[C@@H](OC(=O)/C=C(/C)CCC=C(C)C)[C@H](OC(=O)c7ccccc7)[C@]6(CO)[C@H](O)[C@H](O)[C@@]5(C)[C@]4(C)CC[C@H]3C2(C)C)O[C@H](C(=O)O)[C@H]1O[C@@H]1O[C@@H](CO)[C@H](O)[C@H]1O [SYMPLOCOSOSIDE J]
RESULT: 5.85

----------
Tested on: A549
Assay: Cytotoxicity against human A549 cells by MTT assay
Type: functional, cell-based
pIC50: −log10 of the molar value.
Some compounds, each annotated with its measured pIC50.

Some compounds with known pIC50 results, for comparison:
compound="CC(=O)O[C@@H]1[C@@H](O[C@@H]2O[C@H](CO)[C@@H](O)[C@H](O)[C@H]2O)[C@H](O[C@H]2CC[C@]3(C)[C@H]4CC=C5[C@@H]6CC(C)(C)[C@@H](OC(=O)/C=C(/C)CCC=C(C)C)[C@H](OC(=O)C(C)C)[C@]6(CO)[C@H](O)[C@H](O)[C@@]5(C)[C@]4(C)CC[C@H]3C2(C)C)O[C@H](C(=O)O)[C@H]1O[C@@H]1O[C@@H](CO)[C@H](O)[C@H]1O [SYMPLOCOSOSIDE L]" assay_readout=pIC50 observed="< 5.00"
compound="CC(=O)O[C@@H]1[C@@H](O[C@@H]2O[C@H](CO)[C@@H](O)[C@H](O)[C@H]2O)[C@H](O[C@H]2CC[C@]3(C)[C@H]4CC=C5[C@@H]6CC(C)(C)C[C@H](OC(=O)/C=C(/C)CCC=C(C)C)[C@]6(CO)[C@H](O)[C@H](O)[C@@]5(C)[C@]4(C)CC[C@H]3C2(C)C)O[C@H](C(=O)O)[C@H]1O[C@@H]1O[C@@H](CO)[C@H](O)[C@H]1O [SYMPLOCOSOSIDE O]" assay_readout=pIC50 observed="< 5.00"
compound="CCC(C)C(=O)O[C@H]1[C@H](OC(=O)/C=C(\\C)CCC=C(C)C)C(C)(C)C[C@H]2C3=CC[C@@H]4[C@@]5(C)CC[C@H](O[C@@H]6O[C@H](C(=O)O)[C@@H](O[C@@H]7O[C@@H](CO)[C@H](O)[C@H]7O)[C@H](OC(C)=O)[C@H]6O[C@@H]6O[C@H](CO)[C@@H](O)[C@H](O)[C@H]6O)C(C)(C)[C@@H]5CC[C@@]4(C)[C@]3(C)[C@@H](O)[C@@H](O)[C@]21CO (stereo partly specified) [SYMPLOCOSOSIDE H]" assay_readout=pIC50 observed=5.57
compound="COC(=O)[C@H]1O[C@@H](O[C@H]2CC[C@]3(C)[C@H]4CC=C5[C@@H]6CC(C)(C)[C@@H](OC(=O)/C=C(/C)CCC=C(C)C)[C@H](OC(=O)c7ccccc7)[C@]6(CO)[C@H](O)[C@H](O)[C@@]5(C)[C@]4(C)CC[C@H]3C2(C)C)[C@H](O[C@@H]2O[C@H](CO)[C@@H](O)[C@H](O)[C@H]2O)[C@@H](OC(C)=O)[C@@H]1O[C@@H]1O[C@@H](CO)[C@H](O)[C@H]1O [SYMPLOCOSOSIDE K]" assay_readout=pIC50 observed=5.40

QUERY: Hello, please tell me recorded pIC50 for this one: CCC(C)C(=O)O[C@H]1[C@H](OC(=O)/C=C(/C)CCC=C(C)C)C(C)(C)C[C@H]2C3=CC[C@@H]4[C@@]5(C)CC[C@H](O[C@@H]6O[C@H](C(=O)O)[C@@H](O)[C@H](O)[C@H]6O[C@@H]6O[C@H](CO)[C@@H](O)[C@H](O)[C@H]6O)C(C)(C)[C@@H]5CC[C@@]4(C)[C@]3(C)[C@@H](O)[C@@H](O)[C@]21CO (stereo partly specified) [SYMPLOCOSOSIDE R]
RESULT: < 5.00

QUERY: Hello, please tell me recorded pIC50 for this one: CC1(C)C[C@H]2C3=CC[C@@H]4[C@@]5(C)CC[C@H](O)C(C)(C)[C@@H]5CC[C@@]4(C)[C@]3(C)[C@@H](O)[C@@H](O)[C@@]2(CO)[C@@H](O)[C@@H]1O [R1-barrigenol]
RESULT: < 5.00

QUERY: Hello, please tell me recorded pIC50 for this one: CC(=O)O[C@@H]1[C@@H](O[C@@H]2O[C@H](CO)[C@@H](O)[C@H](O)[C@H]2O)[C@H](O[C@H]2CC[C@]3(C)[C@H]4CC=C5[C@@H]6CC(C)(C)[C@@H](OC(=O)/C=C(\C)CCC=C(C)C)[C@H](OC(=O)C(C)C)[C@]6(CO)[C@H](O)[C@H](O)[C@@]5(C)[C@]4(C)CC[C@H]3C2(C)C)O[C@H](C(=O)O)[C@H]1O[C@@H]1O[C@@H](CO)[C@H](O)[C@H]1O [SYMPLOCOSOSIDE M]
RESULT: < 5.00

QUERY: Hello, please tell me recorded pIC50 for this one: CC1(C)C[C@H](O)[C@]2(CO)[C@H](O)[C@H](O)[C@]3(C)C(=CC[C@@H]4[C@@]5(C)CC[C@H](O)C(C)(C)[C@@H]5CC[C@]43C)[C@@H]2C1
RESULT: < 5.00

QUERY: Hello, please tell me recorded pIC50 for this one: CCC(C)C(=O)O[C@H]1[C@H](OC(=O)/C=C/c2ccccc2)C(C)(C)C[C@H]2C3=CC[C@@H]4[C@@]5(C)CC[C@H](O[C@@H]6O[C@H](CO)[C@@H](O[C@@H]7O[C@@H](CO)[C@H](O)[C@H]7O)[C@H](OC(C)=O)[C@H]6O[C@@H]6O[C@H](CO)[C@@H](O)[C@H](O)[C@H]6O)C(C)(C)[C@@H]5CC[C@@]4(C)[C@]3(C)[C@@H](O)[C@@H](O)[C@]21CO (stereo partly specified) [SYMPLOCOSOSIDE Y]
RESULT: < 5.00

QUERY: Hello, please tell me recorded pIC50 for this one: CCC(C)C(=O)O[C@H]1[C@H](OC(=O)/C=C(/C)CCC=C(C)C)C(C)(C)C[C@H]2C3=CC[C@@H]4[C@@]5(C)CC[C@H](O[C@@H]6O[C@H](C(=O)O)[C@@H](O[C@@H]7O[C@@H](CO)[C@H](O)[C@H]7O)[C@H](OC(C)=O)[C@H]6O[C@@H]6O[C@H](CO)[C@@H](O)[C@H](O)[C@H]6O)C(C)(C)[C@@H]5CC[C@@]4(C)[C@]3(C)[C@@H](O)[C@@H](O)[C@]21CO (stereo partly specified) [SYMPLOCOSOSIDE G]
RESULT: 5.68

QUERY: Hello, please tell me recorded pIC50 for this one: CCC(C)C(=O)O[C@H]1[C@H](OC(=O)c2ccccc2)C(C)(C)C[C@H]2C3=CC[C@@H]4[C@@]5(C)CC[C@H](O[C@@H]6O[C@H](C(=O)O)[C@@H](O[C@@H]7O[C@@H](CO)[C@H](O)[C@H]7O)[C@H](OC(C)=O)[C@H]6O[C@@H]6O[C@H](CO)[C@@H](O)[C@H](O)[C@H]6O)C(C)(C)[C@@H]5CC[C@@]4(C)[C@]3(C)[C@@H](O)[C@@H](O)[C@]21CO (stereo partly specified) [SYMPLOCOSOSIDE P]
RESULT: < 5.00
